src = paper PMC5589570

Target: HLA-A2 (heavy chain with β2-microglobulin) (human | , Heavy-chain limits are not given; taken from the longest deposited entity of this paper (mature 1-276, A*02:01). Bound peptide not included: the test peptide is the partner, and the affinity-assay c)
Test: radioligand binding; competitive peptide binding assay: test peptide (100,000-fold concentration range, triplicate) displaces a radiolabeled peptide from HLA-A2 (refolded with […]); MHC-peptide complexes captured on plates coated with antibody W6/32; IC50 taken as a reasonable approximation of the dissociation constant
Settings: both partners purified
Recorded Kd by entry
Expressed in nM, but write only the number.

>>> reported_value("RQISQDVKL (stretch of adenosine monophosphate deaminase 2 (AMPD2); also called non-phosphorylated RQI; source: synthetic peptide) [RQInp, unmodified peptide RQISQDVKL derived from adenosine monophosphate deaminase 2 (AMPD2)]")
1920

// query Identify the reported Kd for the following entry. RQASIELPSMAV (stretch of Lymphocyte Specific Protein 1 (LSP-1); source: synthetic peptide) [RQA_Vnp, unmodified peptide RQASIELPSMAV derived from Lymphocyte Specific Protein 1 (LSP-1)]
// result 26
